target: human melanocortin-4 receptor (human, UniProt P32245 1-332); test: cell-based or functional assay
Sequence (P32245 whole entry): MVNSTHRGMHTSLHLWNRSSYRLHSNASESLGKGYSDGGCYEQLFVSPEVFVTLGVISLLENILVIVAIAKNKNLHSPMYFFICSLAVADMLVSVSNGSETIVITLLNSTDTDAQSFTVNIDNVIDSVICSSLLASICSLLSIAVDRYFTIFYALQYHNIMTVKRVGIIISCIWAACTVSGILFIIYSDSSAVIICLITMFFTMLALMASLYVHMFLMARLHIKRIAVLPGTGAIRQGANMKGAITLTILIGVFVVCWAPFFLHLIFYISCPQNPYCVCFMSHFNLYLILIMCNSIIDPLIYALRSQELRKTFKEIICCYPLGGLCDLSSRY
Positions of bridges follow the written chain, without caps; N, C: chain ends. Non-standard residues stand in square brackets, D forms with d. dPhe(3,4,5-F3) = N[C@H](Cc1cc(F)c(F)c(F)c1)C(=O)O; dPhe(4-CN) = N#Cc1ccc(C[C@@H](N)C(=O)O)cc1; dPhe(3-Cl) = N[C@H](Cc1cccc(Cl)c1)C(=O)O; Orn = NCCC[C@H](N)C(=O)O
Here the recorded Intrinsic Activity, cAMP, 0.1 ng/mL Doxycycline is given for each entry.
Lab book: enter the figure in %, no units written.

binder	readout-unit	readout-number
Ac-REQ[dPhe(4-CN)]RW[Orn]-OH (lactam 2-7, also called No. 86) [Ac-Arg-cyclo(Glu-Gln-D-Phe(4-CN)-Arg-Trp-Orn)-OH]	%	36

Recorded result, Ac-RER[dPhe(3-Cl)]RW[Orn]-NH2 (lactam 2-7; SMILES CC(=O)N[C@@H](CCCNC(=N)N)C(=O)N[C@H]1CCC(=O)NCCC[C@@H](C(N)=O)NC(=O)[C@H](Cc2c[nH]c3ccccc23)NC(=O)[C@H](CCCNC(=N)N)NC(=O)[C@@H](Cc2cccc(Cl)c2)NC(=O)[C@H](CCCNC(=N)N)NC1=O, also called No. 99) [Ac-Arg-cyclo(Glu-Arg-D-Phe(3-Cl)-Arg-Trp-Orn)-NH2] , Intrinsic Activity, cAMP, 0.1 ng/mL Doxycycline: 32

Recorded result, Ac-REN[dPhe(3,4,5-F3)]RW[Orn]-NH2 (lactam 2-7, also called No. 95) [Ac-Arg-cyclo(Glu-Asn-D-Phe(3,4,5-triF)-Arg-Trp-Orn)-NH2] , Intrinsic Activity, cAMP, 0.1 ng/mL Doxycycline: 42

Recorded result, Ac-REA[dPhe(4-CN)]RW[Orn]-NH2 (lactam 2-7; SMILES CC(=O)N[C@@H](CCCNC(=N)N)C(=O)N[C@H]1CCC(=O)NCCC[C@@H](C(N)=O)NC(=O)[C@H](Cc2c[nH]c3ccccc23)NC(=O)[C@H](CCCNC(=N)N)NC(=O)[C@@H](Cc2ccc(C#N)cc2)NC(=O)[C@H](C)NC1=O, also called No. 41) [Ac-Arg-cyclo(Glu-Ala-D-Phe(4-CN)-Arg-Trp-Orn)-NH2] , Intrinsic Activity, cAMP, 0.1 ng/mL Doxycycline: 5

Recorded result, Ac-REP[dPhe(4-CN)]RW[Orn]-NH2 (lactam 2-7; SMILES CC(=O)N[C@@H](CCCNC(=N)N)C(=O)N[C@H]1CCC(=O)NCCC[C@@H](C(N)=O)NC(=O)[C@H](Cc2c[nH]c3ccccc23)NC(=O)[C@H](CCCNC(=N)N)NC(=O)[C@@H](Cc2ccc(C#N)cc2)NC(=O)[C@@H]2CCCN2C1=O, also called No. 39) [Ac-Arg-cyclo(Glu-Pro-D-Phe(4-CN)-Arg-Trp-Orn)-NH2] , Intrinsic Activity, cAMP, 0.1 ng/mL Doxycycline: 4

The measured values listed here are drawn from patent US20100311648A1.
